target-entity: T1, recombinant human TfR (2474-TR, R&D Systems), biotinylated (human, UniProt P02786 89-760, biotinylated with EZ-Link NHS-PEG4-Biotinylation Kit)
T1 construct: Bought protein; also called immobilized recombinant human TfR; biotinylated human TfR
T1 sequence (P02786 89-760 limits assumed): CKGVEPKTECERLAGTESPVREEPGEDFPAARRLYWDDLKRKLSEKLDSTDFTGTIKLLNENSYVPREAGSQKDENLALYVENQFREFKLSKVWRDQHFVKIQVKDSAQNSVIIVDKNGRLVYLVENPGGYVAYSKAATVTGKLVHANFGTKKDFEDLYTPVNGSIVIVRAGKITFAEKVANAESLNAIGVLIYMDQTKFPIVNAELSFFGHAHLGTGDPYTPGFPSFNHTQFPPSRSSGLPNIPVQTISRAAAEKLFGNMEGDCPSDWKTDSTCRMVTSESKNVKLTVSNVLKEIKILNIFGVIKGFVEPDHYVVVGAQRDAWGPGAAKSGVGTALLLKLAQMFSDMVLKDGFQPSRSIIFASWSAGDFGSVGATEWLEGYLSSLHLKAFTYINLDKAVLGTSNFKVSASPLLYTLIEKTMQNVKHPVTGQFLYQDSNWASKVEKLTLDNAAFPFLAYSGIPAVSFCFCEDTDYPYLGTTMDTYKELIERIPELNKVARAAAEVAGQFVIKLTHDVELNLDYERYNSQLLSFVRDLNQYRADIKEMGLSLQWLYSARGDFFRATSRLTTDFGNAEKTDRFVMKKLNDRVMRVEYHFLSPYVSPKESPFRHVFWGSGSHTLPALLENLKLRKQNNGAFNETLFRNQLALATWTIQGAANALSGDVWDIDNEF
method: SPR (Biacore), ratio of the off rates on human TfR at the two pH values; the printed number equals kd at pH 5.5 divided by kd at pH 7.4
value-type: off-rate ratio kd pH5.5/kd pH7.4

Query block: Tell me measured off-rate ratio kd pH5.5/kd pH7.4 for BBB00741 (VHH, also called histidine mutant of BBB00533) VHH: EVQLVESGGGLVQAGGSLRLSCAASGSIFHINAMGWYRQAPGKQRELVAVITSGGSTIYADSVKGRFTISRDNAENTVYLQMNSLRPEDTAVYYCNAHVGLKVPTIQELSLGFGSWGQGTLVTVSS please.
Result block: 2.74

Query block: Tell me measured off-rate ratio kd pH5.5/kd pH7.4 for BBB00764 (VHH, Histidine mutant) VHH: EVQLVESGGGLVQAGGSLRLSCAASGSIFSINAMGWYRQAPGKQRELVAVITSGGSTIYADSVKGRFTISRDNAENTVYLQMNSLRPEDTAVYYCNAHVGLKVPTIHELSLGFGSWGQGTLVTVSS please.
Result block: 2.02

[a] BBB00763 (VHH, also called histidine mutant of BBB00533) VHH: EVQLVESGGGLVQAGGSLRLSCAASGSIFSINAMGWYRQAPGKQRELVAVITSGGSTIYADSVKGRFTISRDNAENTVYLQMNSLRPEDTAVYYCNAHVGLKVPTHQELSLGFGSWGQGTLVTVSS
[b] BBB00758 (VHH, also called histidine mutant of BBB00533) VHH: EVQLVESGGGLVQAGGSLRLSCAASGSIFSINAMGWYRQAPGKQRELVAVITSGGSTIYADSVKGRFTISRDNAENTVYLQMNSLRPEDTAVYYCNAHVGHKVPTIQELSLGFGSWGQGTLVTVSS
Query block: // pick larger off-rate ratio kd pH5.5/kd pH7.4 from pair: a vs b Answer by quoting the chosen item's label.
Result block: b

[P] BBB00739 (VHH, also called histidine mutant of BBB00533) VHH: EVQLVESGGGLVQAGGSLRLSCAASGSHFSINAMGWYRQAPGKQRELVAVITSGGSTIYADSVKGRFTISRDNAENTVYLQMNSLRPEDTAVYYCNAHVGLKVPTIQELSLGFGSWGQGTLVTVSS
[Q] BBB00771 (VHH, Histidine mutant) VHH: EVQLVESGGGLVQAGGSLRLSCAASGSIFSINAMGWYRQAPGKQRELVAVITSGGSTIYADSVKGRFTISRDNAENTVYLQMNSLRPEDTAVYYCNAHVGLKVPTIQELSLGFHSWGQGTLVTVSS
Query block: // pick larger off-rate ratio kd pH5.5/kd pH7.4 from pair: P vs Q Answer by quoting the chosen item's label.
Result block: P
(P: 2.93, Q: 1.67)
